In this section, each of the compounds is paired with its reported growth.
System: SF-268 CNS
testSummary: NCI-60 one-dose screen, 48 h (100 = growth as untreated, 0 = no growth, -100 = all killed)
cond: 10 µM unless noted
The panel holds about 83,000 compounds, 20% with a hit somewhere; the sample as a whole holds those more often.
Value expressed in %; do not type the unit.

Before answering, review these 3 worked examples.
- compound: "O=C1C=CC(=O)N1c1cccc2c1CCCC2"
  growth (%): 101
- compound: "O=C1C(=O)c2cccnc2-c2ncccc21"
  growth (%): -94.5
- compound: "O=[N+]([O-])c1ccc(N2CCN(Cc3ccccc3)CC2)c2c1no[n+]2[O-]"
  growth (%): -1.56

Ask | Query the reported growth for SF-268 CNS; item: CC1(C)OCC(COC(c2ccccc2)(c2ccccc2)c2ccccc2)O1 (stereo not given)
Reply | 94.2
